The following compounds are shown together with reported Activity values.
Tested on: Mus musculus
procedure_details: Antiosteoporosis activity in ovariectomized ICR mouse assessed as calcium content in femur at 110.3 nmol/kg, po treated for 4 weeks measured after 1 day of last treatment by o-methyl-phenolphthalein
Assay type: functional
Residues, ends and D or L forms follow the SMILES beside them. *: point of attachment. Succinyl(O17-estradiol) = C[C@]12CC[C@@H]3c4ccc(O)cc4CC[C@H]3[C@@H]1CC[C@@H]2OC(=O)CCC(=O)*; Acetyl(estradiol-3-yloxy) = C[C@]12CC[C@@H]3c4ccc(OCC(=O)*)cc4CC[C@H]3[C@@H]1CC[C@@H]2O
Report as a plain number; the unit % is understood.

Recorded results for 3 compounds are shown here.
compound	assay_target	unit_text	Activity
C[C@]12CC[C@@H]3c4ccc(O)cc4CC[C@H]3[C@@H]1CC[C@@H]2OC(=O)CCC(=O)N[C@@H](CCCNC(=N)N)C(=O)NCC(=O)N[C@@H](CC(=O)O)C(=O)N[C@@H](CO)C(=O)O ({Succinyl(O17-estradiol)}-RGDS-OH)	Mus musculus	%	59.34
C[C@]12CC[C@@H]3c4ccc(OCC(=O)N[C@@H](CCCNC(=N)N)C(=O)NCC(=O)N[C@@H](CC(=O)O)C(=O)N[C@@H](Cc5ccccc5)C(=O)O)cc4CC[C@H]3[C@@H]1CC[C@@H]2O ({Acetyl(estradiol-3-yloxy)}-RGDF-OH)	Mus musculus	%	57.42
C[C@]12CC[C@@H]3c4ccc(O)cc4CC[C@H]3[C@@H]1CC[C@@H]2OC(=O)CCC(=O)N[C@@H](CCCNC(=N)N)C(=O)NCC(=O)N[C@@H](CC(=O)O)C(=O)N[C@@H](CO)C(=O)N[C@@H](CCCNC(=N)N)C(=O)NCC(=O)N[C@@H](CC(=O)O)C(=O)N[C@@H](CO)C(=O)O ({Succinyl(O17-estradiol)}-RGDSRGDS-OH)	Mus musculus	%	65.16

From here, focus on the item given below.
Q: Please look up its Activity: C[C@]12CC[C@@H]3c4ccc(O)cc4CC[C@H]3[C@@H]1CC[C@@H]2O
A: 57.28

====

Test system: Mus musculus
procedure_details: Toxicity in ovariectomized ICR mouse assessed as lung weight at 110.3 nmol/kg, po treated for 4 weeks measured after 1 day of last treatment
Type: organism-based
measurement_conditions: in vivo, 24 h
Residues, ends and D or L forms follow the SMILES beside them. *: point of attachment. Succinyl(O17-estradiol) = C[C@]12CC[C@@H]3c4ccc(O)cc4CC[C@H]3[C@@H]1CC[C@@H]2OC(=O)CCC(=O)*; Acetyl(estradiol-3-yloxy) = C[C@]12CC[C@@H]3c4ccc(OCC(=O)*)cc4CC[C@H]3[C@@H]1CC[C@@H]2O
measured_attribute: Activity (g)
Report as a plain number; the unit g is understood.

molecule	assay_target	unit_text	Activity
CC(C)[C@H](NC(=O)[C@H](CC(=O)O)NC(=O)CNC(=O)[C@H](CCCNC(=N)N)NC(=O)COc1ccc2c(c1)CC[C@@H]1[C@@H]2CC[C@]2(C)[C@@H](O)CC[C@@H]12)C(=O)O ({Acetyl(estradiol-3-yloxy)}-RGDV-OH)	Mus musculus	g	0.109

From here, focus on the item given below.
Q: Please look up its Activity: C[C@]12CC[C@@H]3c4ccc(O)cc4CC[C@H]3[C@@H]1CC[C@@H]2OC(=O)CCC(=O)N[C@@H](CCCNC(=N)N)C(=O)NCC(=O)N[C@@H](CC(=O)O)C(=O)N[C@@H](Cc1ccccc1)C(=O)O ({Succinyl(O17-estradiol)}-RGDF-OH)
A: 0.109
